Data credit: patent US11261478B2

- target-or-test-system: UltraGlo luciferase variant Triple+300 (H244W, T344A, I396K, C300G), SEQ ID NO: 11 (Photuris pensylvanica, UniProt Q27757, A101V/A17E/A262V/C221A/D34A/D353K/D394P/E2A/F294L/F367L/F500Y/G84S/H14Y/H220I/H244W/I125V/I173S/I396K/K413N/L193S/L91V/N183Y/N412D/N499D/P295A/R357K/S105N/S204P/S36P/S399G/S502A/T234S/T249M/T344A/T354G/T386P/V145I/V194I/V203L/V300G/V356A/Y144S/Y27D)
- Sequence (Q27757 other isoform, or with tags, fused parts or gaps with the stated changes): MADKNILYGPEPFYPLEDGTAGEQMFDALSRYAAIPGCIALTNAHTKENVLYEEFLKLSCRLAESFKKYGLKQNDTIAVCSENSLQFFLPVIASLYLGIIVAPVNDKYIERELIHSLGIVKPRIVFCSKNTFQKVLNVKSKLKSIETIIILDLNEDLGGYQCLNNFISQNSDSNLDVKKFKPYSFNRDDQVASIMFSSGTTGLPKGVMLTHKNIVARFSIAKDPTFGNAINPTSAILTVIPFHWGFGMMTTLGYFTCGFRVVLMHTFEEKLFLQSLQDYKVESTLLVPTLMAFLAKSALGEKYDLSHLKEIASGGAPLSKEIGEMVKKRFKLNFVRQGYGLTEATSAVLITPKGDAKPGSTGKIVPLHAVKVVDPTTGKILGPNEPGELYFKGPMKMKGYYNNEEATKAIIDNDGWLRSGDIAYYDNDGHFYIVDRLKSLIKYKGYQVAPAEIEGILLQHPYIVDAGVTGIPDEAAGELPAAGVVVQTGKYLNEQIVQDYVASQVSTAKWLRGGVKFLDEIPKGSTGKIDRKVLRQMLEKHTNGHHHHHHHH
- test-details: Competitive inhibition of F-luciferin luminescence by dehydro-F-luciferin, purified Triple+300 luciferase mutant
- Assay type: biochemical
- condition-label: BrightGlo buffer; F-luciferin 1 mM, ATP 0.5 mM final; 3 minutes at room temperature; Michaelis-Menten competitive inhibition model
measurement-type: pKi
// field semantics: pKi = negative decimal log of concentration (mol/L)

[Q] For O=C(O)c1csc(-c2nc3cc(F)c(O)cc3s2)n1 [dehydro-F-luciferin] , write its pKi.
[A] 7.14
